Source listed as patent US7674819B2.

target: hAR (Homo sapiens, UniProt P10275)
Sequence (P10275 whole entry): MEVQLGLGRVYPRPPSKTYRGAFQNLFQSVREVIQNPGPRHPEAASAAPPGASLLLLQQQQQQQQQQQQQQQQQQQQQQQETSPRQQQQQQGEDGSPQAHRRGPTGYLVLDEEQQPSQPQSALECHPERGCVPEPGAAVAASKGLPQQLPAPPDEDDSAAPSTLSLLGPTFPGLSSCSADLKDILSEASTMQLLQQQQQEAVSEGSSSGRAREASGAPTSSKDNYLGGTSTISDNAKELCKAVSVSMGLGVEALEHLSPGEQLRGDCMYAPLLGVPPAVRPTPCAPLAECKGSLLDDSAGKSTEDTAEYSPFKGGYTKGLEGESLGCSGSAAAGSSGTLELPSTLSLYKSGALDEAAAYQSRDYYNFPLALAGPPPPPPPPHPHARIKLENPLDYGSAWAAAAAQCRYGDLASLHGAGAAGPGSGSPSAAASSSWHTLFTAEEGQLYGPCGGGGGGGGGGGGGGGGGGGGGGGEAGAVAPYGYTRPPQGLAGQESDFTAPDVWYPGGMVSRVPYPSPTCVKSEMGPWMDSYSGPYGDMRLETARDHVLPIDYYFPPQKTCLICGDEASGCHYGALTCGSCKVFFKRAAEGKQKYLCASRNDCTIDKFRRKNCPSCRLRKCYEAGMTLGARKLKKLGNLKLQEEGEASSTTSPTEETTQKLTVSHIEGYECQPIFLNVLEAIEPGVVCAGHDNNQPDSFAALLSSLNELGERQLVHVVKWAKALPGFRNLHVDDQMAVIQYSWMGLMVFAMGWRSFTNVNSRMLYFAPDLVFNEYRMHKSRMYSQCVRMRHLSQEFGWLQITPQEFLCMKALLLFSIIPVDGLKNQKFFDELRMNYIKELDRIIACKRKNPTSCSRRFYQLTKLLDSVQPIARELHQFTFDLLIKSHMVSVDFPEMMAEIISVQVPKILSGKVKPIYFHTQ
experimental protocol: Competitive binding of 3H-DHT to baculovirus/Sf9 generated hAR extracts
measurement setup: IC50, concentration at which one half of maximum binding of 1 nM 3H-DHT to hAR is inhibited; one hour at 4° C.; mean of multiple tests
Experimental: The description below describes how the assay was carried out. Competitive binding analysis was performed on baculovirus/Sf9 generated hAR extracts in the presence or absence of different concentrations of test agent and a fixed concentration of ^3H-dihydrotestosterone (^3H-DHT) as tracer. […] Compound binding affinity to the hAR is expressed as the concentration of compound at which one half of the maximum binding is inhibited.
Reported IC50 maps to class as: bin 1: < 0.04 µM; bin 2: ≥ 0.04 µM and < 0.09 µM; bin 3: ≥ 0.09 µM

Enquiry: Hi, small favor: classify COc1cccc(C(C)N2CC(C)(C)C(Oc3ccc(C#N)c(C(F)(F)F)c3)C2=O)c1 (single isomer, unassigned; (+)) [Example 23] by its IC50 when you get a moment.
Return: bin 2

Enquiry: Given CC[C@H](C)N1CC(C)(C)[C@@H](Oc2ccc(C#N)c(C(F)(F)F)c2)C1=O [Example 1] , name the class its IC50 places it in.
Return: bin 3

Enquiry: Entry CCCCN1CC(C)(C)C(Oc2ccc(C#N)c(C(F)(F)F)c2)C1=O (single isomer, unassigned; (+)) [Example 20] belongs to which category?
Return: bin 3

Enquiry: # bin label for CCCN1CC(C)(C)[C@@H](Oc2ccc(C#N)c(C(F)(F)F)c2)C1=O [Example 4A]
Return: bin 3

Enquiry: Form field 'band' for CC1(C)CN(Cc2ccccc2C#N)C(=O)C1Oc1ccc(C#N)c(C(F)(F)F)c1 (stereo not drawn) [Example 47]
Return: bin 2
